# experimental.target: DP receptor (Homo sapiens, UniProt Q13258)
# Construct: endogenous in cells
# Sequence (Q13258 whole entry): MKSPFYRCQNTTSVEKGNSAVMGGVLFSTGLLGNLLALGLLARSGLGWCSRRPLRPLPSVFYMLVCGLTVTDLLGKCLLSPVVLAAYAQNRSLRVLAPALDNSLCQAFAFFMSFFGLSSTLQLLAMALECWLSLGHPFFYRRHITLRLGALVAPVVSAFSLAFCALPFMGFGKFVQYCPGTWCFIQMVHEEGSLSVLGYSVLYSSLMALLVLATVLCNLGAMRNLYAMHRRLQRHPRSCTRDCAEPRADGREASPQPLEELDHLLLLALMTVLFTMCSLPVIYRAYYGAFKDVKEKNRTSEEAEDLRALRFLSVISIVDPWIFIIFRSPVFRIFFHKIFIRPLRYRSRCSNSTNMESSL
# procedure.summary: Receptor binding assay, [3H]-PGD2, platelet membrane
# run.parameters: [3H]-PGD2, human platelet membrane
readout.kind: Ki (nM)

Exam item: What Ki value was documented for this compound, `CC(C)Oc1ccc(S(=O)(=O)N2CCC(c3cn(CC(=O)O)c4nc(Br)ccc34)CC2)cc1` ?
Marked response: 0.85

I = CC(C)Oc1ccc(S(=O)(=O)N2CCC(c3cn(CC(=O)O)c4ncccc34)CC2)cc1
II = COc1ccc2c(C3CCN(S(=O)(=O)c4ccc(OC(C)C)cc4)CC3)cn(CC(=O)O)c2n1
Exam item: Dear colleague, could you let me know whether I or II has the lower recorded Ki? Thanks. Answer by stating the label of the chosen item.
Marked response: II
(II: 0.61 nM, I: 1 nM)
